system: KIT; settings: concentration: 1 μM, replicates: in singlicate; n = 1;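 further: KINOMEscan kinase panel screen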
Threshold check on %Inh: at or above 20% gives label 1, strictly below gives label 0.

Textbook exercise: given the entry O=C1NC(=O)C(c2ccccc2Cl)=C1Nc1cccc(Cl)c1 [SB-342409] , state whether its %Inh is greater than or equal to 20%.
label 0

Textbook exercise: given the entry COc1ccc(C2=C(Nc3cccc(O)c3)C(=O)NC2=O)cc1 [SB-390766] , state whether its %Inh is greater than or equal to 20%.
label 0

Textbook exercise: given the entry COc1cc(Nc2nccc(N3CCC(NS(=O)(=O)c4ccc(NC(C)=O)cc4)CC3)n2)cc(OC)c1OC [GSK1379825] , state whether its %Inh is greater than or equal to 20%.
label 1

Textbook exercise: given the entry N#CC1(c2cccc(C(=O)Nc3cccc(Oc4ccc5nc(NC(=O)C6CC6)sc5n4)c3)c2)CC1 , state whether its %Inh is greater than or equal to 20%.
label 1

Textbook exercise: given the entry COc1cccc(C2=C(Nc3cccc(O)c3)C(=O)NC2=O)c1 [SB-390771] , state whether its %Inh is greater than or equal to 20%.
label 0

Textbook exercise: given the entry CCn1cnc2c(NCc3ccccc3)ncnc21 [SKF-96418] , state whether its %Inh is greater than or equal to 20%.
label 0

Textbook exercise: given the entry CN(c1ccc(NC(=O)N2CCN(CCCN3CCOCC3)CC2)cc1)c1ccnc(Nc2ccc(CS(C)(=O)=O)cc2)n1.Cl [GW830899] , state whether its %Inh is greater than or equal to 20%.
label 1

Textbook exercise: given the entry CN(C)CCOc1ccc(-c2cc(-c3ccc(Cl)c(O)c3)c(-c3ccncc3)[nH]2)cc1.Cl.Cl [SB-684387] , state whether its %Inh is greater than or equal to 20%.
label 0

Textbook exercise: given the entry CN(C)CCNS(=O)(=O)c1ccc(-c2ccnc3[nH]ccc23)cc1 [GSK977620] , state whether its %Inh is greater than or equal to 20%.
label 0

Textbook exercise: given the entry Cn1cc(-c2ccc3c(c2)CCN3C(=O)Cc2cc(F)cc(F)c2F)c2c(N)ncnc21 [GSK2634140] , state whether its %Inh is greater than or equal to 20%.
label 1

Textbook exercise: given the entry Cc1cc(-c2ccnc(Nc3cccc(C#N)c3)n2)cc(C)c1O [GSK1440913] , state whether its %Inh is greater than or equal to 20%.
label 1

Textbook exercise: given the entry O=C(O)C(F)(F)F.O=c1[nH]ccc2nc(N[C@@H]3CCNC3)nc(Nc3ccc4c(c3)S(=O)(=O)CC4)c12 [GSK2181306] , state whether its %Inh is greater than or equal to 20%.
label 1

Textbook exercise: given the entry COc1cccc(CC(=O)N2CCc3cc(-c4cn(C)c5ncnc(N)c45)ccc32)c1 [GSK2608899] , state whether its %Inh is greater than or equal to 20%.
label 1

Textbook exercise: given the entry Cc1cccc(Nc2nc(NCCN)ncc2C(N)=O)c1 [GSK1292139] , state whether its %Inh is greater than or equal to 20%.
label 1

Textbook exercise: given the entry CS(=O)(=O)c1cccc(CNc2nc(Nc3ccc4c(c3)CCC(=O)N4)ncc2C(F)(F)F)c1 , state whether its %Inh is greater than or equal to 20%.
label 1

Textbook exercise: given the entry CN(c1ccc(F)c(NC(=O)c2cccc(OC(C)(C)C#N)c2Cl)c1)c1ccc2nc(NC(=O)C3CC3)sc2n1 , state whether its %Inh is greater than or equal to 20%.
label 1

Textbook exercise: given the entry COc1cc(Nc2nccc(N3CCC(NC(=O)Nc4ccc5c(c4)OCO5)C3)n2)cc(OC)c1OC (stereo not shown) [GSK1379766] , state whether its %Inh is greater than or equal to 20%.
label 1

Textbook exercise: given the entry CN(C)c1ncnc2nc[nH]c12 [SKF-31736] , state whether its %Inh is greater than or equal to 20%.
label 0

Textbook exercise: given the entry O=C(Nc1n[nH]c2nc(-c3ccccc3O)ccc12)C1CC1 [SB-711880] , state whether its %Inh is greater than or equal to 20%.
label 0

Textbook exercise: given the entry O=C(Nc1c(F)cccc1F)c1cc(C(=O)c2ccccc2F)c[nH]1 [GSK1326180] , state whether its %Inh is greater than or equal to 20%.
label 0

Textbook exercise: given the entry CC(C)c1nc(-c2ccc(F)c(NS(=O)(=O)c3c(F)cccc3F)c2)c(-c2ccnc(Nc3ccc(N4CCOCC4)nc3)n2)s1 [GSK1804250] , state whether its %Inh is greater than or equal to 20%.
label 1

Textbook exercise: given the entry Cc1ccccc1CC(=O)N1CCc2cc(-c3cn(C)c4ncnc(N)c34)ccc21 [GSK2603346] , state whether its %Inh is greater than or equal to 20%.
label 1

Textbook exercise: given the entry N#Cc1cnc2cc(-c3cnc(CNCCN4CCOCC4)s3)ccc2c1Nc1ccc(Oc2ccccc2)cc1 [GW664114] , state whether its %Inh is greater than or equal to 20%.
label 0

Textbook exercise: given the entry CCNC(=O)/C=C/c1n[nH]c2cc(Sc3ccccc3C(=O)NC)ccc12 , state whether its %Inh is greater than or equal to 20%.
label 1

Textbook exercise: given the entry Cc1nn2c(=O)cc(N3CCO[C@H](C)C3)nc2n1Cc1cccc(Cl)c1Cl [GSK2373693] , state whether its %Inh is greater than or equal to 20%.
label 1

Textbook exercise: given the entry Cl.Cl.NC(CNC(=O)c1cc(Br)c(-c2ccnc3[nH]ccc23)s1)c1ccccc1 (stereo not shown) [GSK1322949] , state whether its %Inh is greater than or equal to 20%.
label 1

Textbook exercise: given the entry O=C(Nc1n[nH]c2nc(-c3cccc(O)c3)ccc12)C1CC1 [SB-711805] , state whether its %Inh is greater than or equal to 20%.
label 1

Textbook exercise: given the entry COc1cccc(NC(=O)NCCNc2ccnc(Nc3ccc(F)cc3)n2)c1 [GSK1379879] , state whether its %Inh is greater than or equal to 20%.
label 1

Textbook exercise: given the entry CC(C)c1nc(-c2cccc(NS(=O)(=O)c3c(F)cccc3F)c2)c(-c2ccnc(Nc3ccc(N4CCOCC4)nc3)n2)s1.Cl [GSK1723980] , state whether its %Inh is greater than or equal to 20%.
label 1

Textbook exercise: given the entry Cn1cc(-c2ccc3c(c2)CCN3C(=O)Cc2cc(F)cc(C(F)(F)F)c2)c2c(N)ncnc21 [GSK2635225] , state whether its %Inh is greater than or equal to 20%.
label 1

Textbook exercise: given the entry O=C(O)C(F)(F)F.O=c1[nH]ccc2nc(N[C@@H]3CCNC3)nc(Nc3cc(Cl)cc(Cl)c3)c12 [GSK2188764] , state whether its %Inh is greater than or equal to 20%.
label 1

Textbook exercise: given the entry CN(c1ccc(NC(=O)Nc2cccc(Cl)c2)cc1)c1ccnc(N)n1.Cl [GW830707] , state whether its %Inh is greater than or equal to 20%.
label 1

Textbook exercise: given the entry Cc1ccc(-c2ccc3occ(-c4ccc(S(C)=O)cc4)c3c2)nn1 (stereo not shown) , state whether its %Inh is greater than or equal to 20%.
label 0

Textbook exercise: given the entry Fc1cc(Cl)ccc1Nc1ccnc2cc(-c3ccc(CN4CCSCC4)o3)ccc12 [GW560106] , state whether its %Inh is greater than or equal to 20%.
label 1
